# ASSAY_PROTOCOL: Mean elimination half-life of simvastatin following administration of reference product Zocor 80 mg tablet in healthy human
# Assay type: ADME, organism-based
# CONDITION_PARAMETERS: plasma, po
MEASURE: half-life (h)
The answer is to be given in h; state only the numeric part.

So for CCC(C)(C)C(=O)O[C@H]1C[C@@H](C)C=C2C=C[C@H](C)[C@H](CC[C@@H]3C[C@@H](O)CC(=O)O3)[C@H]21 [SIMVASTATIN] , the logged half-life turned out to be 10.1

----------
# ASSAY_PROTOCOL: Mean Cmax of simvastatin following administration of reference product Zocor 80 mg tablet in healthy human
# Assay type: ADME, organism-based
# CONDITION_PARAMETERS: plasma, po
MEASURE: Cmax (ng/mL)
The answer is to be given in ng/mL; state only the numeric part.

So for CCC(C)(C)C(=O)O[C@H]1C[C@@H](C)C=C2C=C[C@H](C)[C@H](CC[C@@H]3C[C@@H](O)CC(=O)O3)[C@H]21 [SIMVASTATIN] , the logged Cmax turned out to be 19.4

----------
# ASSAY_PROTOCOL: Mean elimination half-life of simvastatin following administration of simvastatin 80 mg orally disintegrating tablet in healthy human
# Assay type: ADME, organism-based
# CONDITION_PARAMETERS: plasma, po
MEASURE: half-life (h)
The answer is to be given in h; state only the numeric part.

So for CCC(C)(C)C(=O)O[C@H]1C[C@@H](C)C=C2C=C[C@H](C)[C@H](CC[C@@H]3C[C@@H](O)CC(=O)O3)[C@H]21 [SIMVASTATIN] , the logged half-life turned out to be 9.39

----------
# ASSAY_PROTOCOL: Mean Cmax of simvastatin following administration of simvastatin 80 mg orally disintegrating tablet in healthy human
# Type: ADME, organism-based
# CONDITION_PARAMETERS: plasma, po
MEASURE: Cmax (ng/mL)
The answer is to be given in ng/mL; state only the numeric part.

So for CCC(C)(C)C(=O)O[C@H]1C[C@@H](C)C=C2C=C[C@H](C)[C@H](CC[C@@H]3C[C@@H](O)CC(=O)O3)[C@H]21 , the logged Cmax turned out to be 18.3
